Biological target: full-length NS3/NS4A-2 (HCV NS3 protease) (Hepatitis C virus genotype 1b, UniProt Q9WMX2)
Construct: Recombinant E. coli or Baculovirus full-length NS3; host or cells: E. coli or baculovirus (BV) expression
Sequence (Q9WMX2 1027-1657): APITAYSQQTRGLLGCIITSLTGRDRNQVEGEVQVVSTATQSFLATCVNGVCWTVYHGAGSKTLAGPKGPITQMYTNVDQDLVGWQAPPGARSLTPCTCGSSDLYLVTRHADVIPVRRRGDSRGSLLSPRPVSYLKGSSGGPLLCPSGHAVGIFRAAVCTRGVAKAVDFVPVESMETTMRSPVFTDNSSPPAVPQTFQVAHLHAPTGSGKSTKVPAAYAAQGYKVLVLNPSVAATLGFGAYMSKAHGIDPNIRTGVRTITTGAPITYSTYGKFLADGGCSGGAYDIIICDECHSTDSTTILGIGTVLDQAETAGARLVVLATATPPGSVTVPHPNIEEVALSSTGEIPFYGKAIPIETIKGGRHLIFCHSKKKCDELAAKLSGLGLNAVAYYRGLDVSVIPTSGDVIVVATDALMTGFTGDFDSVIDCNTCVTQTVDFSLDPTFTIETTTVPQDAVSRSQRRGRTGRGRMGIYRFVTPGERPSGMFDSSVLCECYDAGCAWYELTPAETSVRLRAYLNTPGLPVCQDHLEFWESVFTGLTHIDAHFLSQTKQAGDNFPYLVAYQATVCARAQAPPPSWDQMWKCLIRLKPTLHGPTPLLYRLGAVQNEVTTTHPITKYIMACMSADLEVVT
Sequence (Q9WMX2 1658-1711): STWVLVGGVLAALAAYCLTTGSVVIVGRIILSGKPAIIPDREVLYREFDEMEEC
Assay: NS3 Inhibition Assay (NS3-NS4 protease assay, RETS1 substrate)
Assay type: biochemical
Settings: NS3/NS4A-2 protease
pIC50: −log10 of the molar value.
TEST READOUT: pIC50

>>> value_observed("C=C[C@@H]1C[C@]1(NC(=O)[C@@H]1C[C@@H](Oc2cc(-c3nc(C(C)C)cs3)nc3c(C)c(OC)ccc23)CN1C(=O)[C@@H](Nc1cc(F)cc(C(F)(F)F)c1)C(C)(C)C)C(=O)NS(=O)(=O)N(C)C")
"> 7.00"
>>> value_observed("CC[C@@H]1C[C@]1(NC(=O)[C@@H]1CC(Oc2cc(-c3nc(C(C)C)cs3)nc3c(C)c(OC)ccc23)CN1C(=O)[C@@H](Nc1cccc(C(F)(F)F)c1)C(C)(C)C)C(=O)NS(=O)(=O)C1(C)CC1 (stereo partly shown)")
"> 7.00"
>>> value_observed("CC[C@@H]1C[C@]1(NC(=O)[C@@H]1C[C@@H](OC(=O)N2Cc3cccc(F)c3C2)CN1C(=O)[C@@H](Nc1ccc(S(=O)(=O)N2CCNCC2)cc1)C(C)(C)C)C(=O)NS(=O)(=O)C1CC1")
"> 7.00"
>>> value_observed("CC[C@@H]1C[C@]1(NC(=O)[C@@H]1C[C@@H](Oc2cc(-c3nc(C(C)C)cs3)nc3c(C)c(OC)ccc23)CN1C(=O)[C@@H](Nc1ccccc1[N+](=O)[O-])C(C)(C)C)C(=O)NS(=O)(=O)C1CC1")
"< 6.00"
